molecular target: Gamma-aminobutyric acid receptor subunit alpha-1/beta-3/gamma-2 (Mus musculus, UniProt P22723+P62812+P63080); assay: Positive allosteric modulation of C57BL/6 mouse GABAA receptor alpha1beta3gamma2 assessed as increase in GABA-induced current response at -60 mV holding potential by whole cell patch-clamp method relative to GABA
Sequence (P22723 whole entry): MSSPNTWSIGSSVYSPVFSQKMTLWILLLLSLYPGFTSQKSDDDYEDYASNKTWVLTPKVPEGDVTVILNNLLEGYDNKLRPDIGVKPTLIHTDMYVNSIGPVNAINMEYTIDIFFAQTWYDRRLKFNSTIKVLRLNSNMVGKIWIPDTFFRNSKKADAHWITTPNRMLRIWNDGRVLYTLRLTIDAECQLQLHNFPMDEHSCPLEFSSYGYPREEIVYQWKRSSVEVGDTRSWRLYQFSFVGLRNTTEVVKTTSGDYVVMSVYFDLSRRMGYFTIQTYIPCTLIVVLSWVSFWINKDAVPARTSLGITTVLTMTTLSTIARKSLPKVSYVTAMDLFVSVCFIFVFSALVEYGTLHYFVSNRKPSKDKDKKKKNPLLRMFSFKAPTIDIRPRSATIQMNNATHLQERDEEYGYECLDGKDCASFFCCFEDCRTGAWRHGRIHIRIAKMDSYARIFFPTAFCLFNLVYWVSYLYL
Sequence (P62812 whole entry): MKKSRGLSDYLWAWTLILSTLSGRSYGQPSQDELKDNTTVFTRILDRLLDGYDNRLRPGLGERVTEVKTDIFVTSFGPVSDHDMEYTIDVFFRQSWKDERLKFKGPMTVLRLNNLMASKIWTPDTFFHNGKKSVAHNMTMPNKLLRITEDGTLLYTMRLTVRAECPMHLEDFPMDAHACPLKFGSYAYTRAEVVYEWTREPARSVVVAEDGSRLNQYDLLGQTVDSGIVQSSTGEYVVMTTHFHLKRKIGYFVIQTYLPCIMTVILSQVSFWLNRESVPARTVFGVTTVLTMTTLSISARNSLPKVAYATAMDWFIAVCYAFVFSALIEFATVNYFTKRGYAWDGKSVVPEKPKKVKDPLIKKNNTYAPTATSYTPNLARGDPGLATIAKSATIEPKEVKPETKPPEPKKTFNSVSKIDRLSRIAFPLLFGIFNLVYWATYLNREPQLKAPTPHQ
Sequence (P63080 whole entry): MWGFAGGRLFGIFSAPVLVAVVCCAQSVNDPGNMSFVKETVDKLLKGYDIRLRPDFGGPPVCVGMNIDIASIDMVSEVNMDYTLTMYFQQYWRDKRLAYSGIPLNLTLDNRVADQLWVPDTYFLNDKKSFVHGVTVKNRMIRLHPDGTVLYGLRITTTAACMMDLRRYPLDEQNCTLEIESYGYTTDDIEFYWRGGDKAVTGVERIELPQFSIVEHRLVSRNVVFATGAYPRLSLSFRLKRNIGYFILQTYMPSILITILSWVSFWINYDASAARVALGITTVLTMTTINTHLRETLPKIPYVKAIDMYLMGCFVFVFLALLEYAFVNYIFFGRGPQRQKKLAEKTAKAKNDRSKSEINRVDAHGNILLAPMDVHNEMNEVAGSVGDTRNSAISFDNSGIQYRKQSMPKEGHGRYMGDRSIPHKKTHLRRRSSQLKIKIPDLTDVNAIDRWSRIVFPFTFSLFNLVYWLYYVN
readout-kind: EC50

Entry C[C@H]1[C@H]2C(=O)N(C)c3ccncc3[C@H]2CN1S(=O)(=O)c1ccc2c(c1)OCO2 — recorded EC50 = > 30 µM

###

Molecular target: 5-hydroxytryptamine receptor 3A (Homo sapiens, UniProt P46098)
Sequence (P46098 whole entry): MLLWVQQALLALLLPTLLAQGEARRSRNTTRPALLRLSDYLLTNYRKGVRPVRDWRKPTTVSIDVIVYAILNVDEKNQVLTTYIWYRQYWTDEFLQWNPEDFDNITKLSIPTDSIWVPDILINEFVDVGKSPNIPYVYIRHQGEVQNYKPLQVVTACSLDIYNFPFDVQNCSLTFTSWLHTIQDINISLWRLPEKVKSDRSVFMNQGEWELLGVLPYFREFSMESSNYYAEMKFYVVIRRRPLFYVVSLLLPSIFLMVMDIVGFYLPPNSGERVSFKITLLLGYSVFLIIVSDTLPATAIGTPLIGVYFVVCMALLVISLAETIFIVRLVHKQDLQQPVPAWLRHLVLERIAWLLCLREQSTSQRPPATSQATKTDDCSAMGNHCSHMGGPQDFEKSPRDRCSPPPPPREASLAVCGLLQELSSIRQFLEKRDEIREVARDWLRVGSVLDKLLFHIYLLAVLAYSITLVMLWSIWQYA
Experiment: Displacement of [3H]granisetron from human 5-HT3A receptor expressed in HEK293 cells by scintillation counting method
Assay type: cell-based
readout-kind: pKi
Just the number, please; pKi means minus log10 of the concentration in mol/L.

Entry CN1CCN(c2nc3ccccc3nc2Cl)CC1 — recorded pKi = 10.40
